molecules and their reported TGI
# Test system: A498 renal
# experimental_protocol: NCI tumour cell line growth inhibition, 48 h
readout: TGI

| compound_structure_string | result |
| --- | --- |
| O=Cc1cc([N+](=O)[O-])no1 | > 100 µM |
| CCCCCCc1cc2cc(-c3nc4ccccc4[nH]3)c(=Nc3ccccc3C)oc2cc1O | 16.8 µM |
| Cn1ccc(C(=O)N2CCSC2=S)c(OCc2ccccc2)c1=O | > 100 µM |
| CCOC(=O)[C@]12C(=C(c3ccccc3)O[C@H]3C=CCC[C@H]31)C(=O)C(=O)N2c1ccccc1 | > 100 µM |
| Cc1ccc(NC(=O)Cc2ccc(/C=C/C(=O)c3ncc[nH]3)cc2)cc1 | > 25 µM |
